Taken from paper PMC4336329.

Measured hERG current change (%, negative = inhibition) at 10uM by item
- TARGET_OR_SYSTEM: human ether-à-go-go-related gene (hERG) potassium channel (human, UniProt Q12809)
- Sequence (Q12809 whole entry, looked up): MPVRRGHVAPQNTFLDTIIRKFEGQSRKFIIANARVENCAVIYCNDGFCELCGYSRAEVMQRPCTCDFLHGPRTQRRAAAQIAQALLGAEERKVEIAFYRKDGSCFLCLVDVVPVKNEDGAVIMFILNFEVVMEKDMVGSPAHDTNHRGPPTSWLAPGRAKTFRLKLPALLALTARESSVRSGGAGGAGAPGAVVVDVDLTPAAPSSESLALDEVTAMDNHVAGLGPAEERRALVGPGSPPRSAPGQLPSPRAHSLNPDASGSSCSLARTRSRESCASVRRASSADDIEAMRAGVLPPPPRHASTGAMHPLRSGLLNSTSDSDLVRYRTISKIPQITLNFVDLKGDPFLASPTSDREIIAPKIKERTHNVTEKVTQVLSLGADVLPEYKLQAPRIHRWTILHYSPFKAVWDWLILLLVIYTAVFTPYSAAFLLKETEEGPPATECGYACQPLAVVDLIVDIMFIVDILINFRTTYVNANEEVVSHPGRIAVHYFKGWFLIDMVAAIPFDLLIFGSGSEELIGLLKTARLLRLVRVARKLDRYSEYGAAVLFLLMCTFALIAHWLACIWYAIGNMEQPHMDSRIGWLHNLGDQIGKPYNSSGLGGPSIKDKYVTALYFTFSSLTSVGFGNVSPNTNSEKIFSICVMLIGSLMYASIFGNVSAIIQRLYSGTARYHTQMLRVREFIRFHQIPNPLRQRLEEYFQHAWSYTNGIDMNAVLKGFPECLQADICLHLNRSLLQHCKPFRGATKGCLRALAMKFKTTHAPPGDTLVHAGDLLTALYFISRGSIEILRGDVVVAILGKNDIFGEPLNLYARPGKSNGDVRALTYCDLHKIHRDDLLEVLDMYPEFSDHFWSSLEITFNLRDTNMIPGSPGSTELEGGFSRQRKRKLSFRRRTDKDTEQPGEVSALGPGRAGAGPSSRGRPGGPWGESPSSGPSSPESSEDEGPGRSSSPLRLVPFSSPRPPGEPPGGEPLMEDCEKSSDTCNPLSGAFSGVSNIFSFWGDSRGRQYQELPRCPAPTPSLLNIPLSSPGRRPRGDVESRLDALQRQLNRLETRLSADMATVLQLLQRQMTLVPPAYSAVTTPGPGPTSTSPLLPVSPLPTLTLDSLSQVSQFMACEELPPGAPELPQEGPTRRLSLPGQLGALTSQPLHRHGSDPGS
- PROTOCOL: primary screen, population patch clamp on CHO cells stably expressing hERG; higher = less effect of the substance
Out of some 310,000 compounds screened, about 14,000 (4.5%) showed an effect of 50% or more. Effects have a minus sign here. Only a selection was taken, and strong results are over-represented in it overall.
Enter your answer as a number in %; do not include the unit.

O=[N+]([O-])c1cccc(Cl)c1NCCNc1ncc(C(F)(F)F)cc1Cl = 15.6
COc1ccc(Cl)cc1C(=O)Nc1ccncc1 = -26.2
COc1ccc(OC)c(NC(=O)Nc2cc(C(=O)O)ccc2C)c1 = 13.1
O=C(c1ccc2c(=O)n(C3CCCC3)c(=S)[nH]c2c1)N1CCN(C2CCCCC2)CC1 = 6.5

Kindly review the next molecule as well.
Query :: Quick one: hERG current change (%, negative = inhibition) at 10uM of CC[C@H](C)[C@H](NC(N)=O)C(=O)NCCc1ccc(OC)cc1 ?
Result :: -0.532

---

- TARGET_OR_SYSTEM: human ether-à-go-go-related gene (hERG) potassium channel (human, UniProt Q12809)
- PROTOCOL: primary screen, population patch clamp on CHO cells stably expressing hERG; higher = less effect of the substance
The campaign covered roughly 310,000 compounds. About 14,000 (4.5%) showed an effect of 50% or more. Effects have a minus sign here. Only a selection was taken, and strong results are over-represented in it overall.
Measured hERG current change (%, negative = inhibition) at 10uM by item
Enter your answer as a number in %; do not include the unit.

Study these solved cases before continuing.
Cc1[nH]c2c(C(=O)N3CCCC(CCC(=O)NCc4ccccc4F)C3)cccc2c1C (centres unmarked) = 3.39
CCc1ccccc1NC(=O)CN1CCN(C(=O)CNC(=O)c2ccc(N3CCCC3=O)cc2)CC1 = -3.9
O=C(NCCCn1ccnc1)c1ccc(N2CCCCC2)c([N+](=O)[O-])c1 = -71.7
CCCCCCCCCCCC(=O)N/N=C/c1ccco1 = -11.2
Cc1cc(C)c[n+](-c2[nH]c(=O)sc2/C=N/N=C(\N)[S-])c1 = 22

Query :: Quick one: hERG current change (%, negative = inhibition) at 10uM of Cc1ccc(C(=O)NCCCn2ccnc2)cc1[N+](=O)[O-] ?
Result :: 4.53

Query :: Likewise for COc1ccc(CN2CCN(CC3CC3)CC2CCO)c(C)c1C (centres unmarked) ?
Result :: -0.714

Query :: Likewise for COc1ccc(CN2CCN(Cc3cccn3-c3ncccn3)CC2CCO)c(C)c1C (centres unmarked) ?
Result :: -81.6

Query :: Likewise for Cc1ccc(-n2nc3c(=O)n(CCCC(=O)NCc4ccc(Cl)cc4)nc(C)c3c2C)cc1 ?
Result :: 4.82

Query :: Likewise for C[C@H]1CCC(=O)N([C@H](CSc2ccccc2)Cc2ccccc2)CC1 ?
Result :: -37

Query :: Likewise for COc1ccccc1C1N(c2cc(Cl)ccc2OC)C(=O)C2CCCN21 (centres unmarked) ?
Result :: 1.23

---

- TARGET_OR_SYSTEM: human ether-à-go-go-related gene (hERG) potassium channel (human, UniProt Q12809)
- PROTOCOL: primary screen, population patch clamp on CHO cells stably expressing hERG; higher = less effect of the substance
In all, about 310,000 compounds went through this assay and about 14,000 (4.5%) showed an effect of 50% or more. Effects have a minus sign here. The sample as a whole holds a higher share of strong results than the screen did.
Output yes for hERG current change (%, negative = inhibition) at 10uM not less than 10%; output no otherwise.

COc1ccc(Cc2nnc(Nc3ccccc3)s2)cc1Br = yes
CCc1nc2sc3c(c2c(=O)n1N)CC(C)(C)OC3 = no
COc1cc(CCCN[C@H](CN)Cc2ccccc2)cc(OC)c1OC = no
Cn1c(=NC(=O)C2=NNC(=O)CC2)sc2ccccc21 = yes
CC(C)(C)NC(=O)NC(=O)COC(=O)c1cccc(F)c1 = no

Query :: Does the molecule COc1ccc(/C=N/Nc2nc3ccccc3o2)cc1OC have recorded hERG current change (%, negative = inhibition) at 10uM that is 10% or more?
Result :: yes

---

- TARGET_OR_SYSTEM: human ether-à-go-go-related gene (hERG) potassium channel (human, UniProt Q12809);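 further: peak tail current of the secondary pulse compared with the same well before compound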
- PROTOCOL: primary screen, population patch clamp on CHO cells stably expressing hERG; higher = less effect of the substance
Out of some 310,000 compounds screened, about 14,000 (4.5%) showed an effect of 50% or more. Effects have a minus sign here. Many of the other results were omitted from the sample, so strong results are more common in it than they were.
EXPERIMENTAL_ENDPOINT: hERG current change (%, negative = inhibition) at 10uM (%)
Enter your answer as a number in %; do not include the unit.

CCc1ccc(NC2CC(=O)N(CCc3ccc(OC)c(OC)c3)C2=O)cc1 (centres unmarked) = -13.4
COc1ccc(-c2cc(C(=O)N3CCN(c4ccccc4OC)CC3)no2)cc1OC = -0.868

Query :: Lab request: please report hERG current change (%, negative = inhibition) at 10uM under test system human ether-à-go-go-related gene (hERG) potassium channel (human, UniProt Q12809) for CCOC(=O)Cc1c(C)nc2c(-c3ccccc3)c[nH]n2c1=O;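 further: peak tail current of the secondary pulse compared with the same well before compound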
Result :: 2.48

Query :: Likewise for NC(=O)N/N=C/c1ccccc1OCC(=O)NCc1ccccc1 ?
Result :: -3.76

Query :: Likewise for COc1ccc(CCNC2CC(=O)N(CCc3ccccc3)C2=O)cc1OC (centres unmarked) ?
Result :: 0.286

---

- TARGET_OR_SYSTEM: human ether-à-go-go-related gene (hERG) potassium channel (human);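 further: peak tail current of the secondary pulse compared with the same well before compound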
- PROTOCOL: primary screen, population patch clamp on CHO cells stably expressing hERG; higher = less effect of the substance
The whole screen tested about 310,000 compounds, of which about 14,000 (4.5%) showed an effect of 50% or more. Effects have a minus sign here. The full list was thinned out, with strong results kept by preference.
Measured hERG current change (%, negative = inhibition) at 10uM by item
Enter your answer as a number in %; do not include the unit.

Study these solved cases before continuing.
CC(C)CC(=O)N1CCN(S(=O)(=O)c2ccccc2)CC1 = 0.444
O=[N+]([O-])c1ccc(Cl)c(/C=N/N2CCN(Cc3ccccc3)CC2)c1 = -1.74
CCCC/C(O)=C1\C(=O)CC(C)(C)CC1=Nc1ccc(N)cc1 = -11.4
O=C(NCc1cccc(C(F)(F)F)c1)c1cc(-c2ccccc2)nn1CC1CC(c2cccnc2)=NO1 (centres unmarked) = -52.4
CC(CC(=O)N1CCN(S(=O)(=O)c2ccc([N+](=O)[O-])cc2)CC1)c1ccccc1 (centres unmarked) = -67.8

Query :: Quick one: hERG current change (%, negative = inhibition) at 10uM of O=C(/C=C/c1ccc(OCCCF)cc1)N1CCN(Cc2ccccc2)CC1 ?
Result :: -65.6

Query :: Likewise for CCN(CC)c1ccc(CNc2ccc(Br)cn2)cc1 ?
Result :: 13.1

Query :: Likewise for O=[N+]([O-])c1ccc(/C=N/N2CCN(Cc3ccccc3)CC2)cc1 ?
Result :: -56.3

Query :: Likewise for CNC(=O)c1sc(-c2cccnc2)nc1C ?
Result :: -34.7

Query :: Likewise for Cc1sc(NC(=O)Cn2[nH]c(=O)c3ccccc3c2=O)nc1-c1ccccc1 ?
Result :: 11.6

Query :: Likewise for CC(C)(C)SCCNC(=O)c1ccc(CN2CCc3ccccc3C2)cc1 ?
Result :: -35.1

Query :: Likewise for Cc1nc(-c2cccnc2)sc1C(=O)Nc1ccc(Cl)cc1 ?
Result :: -29.2

Query :: Likewise for O=C(/C=C/c1ccc(F)cc1)N1CCN(Cc2ccccc2)CC1 ?
Result :: -40.6

Query :: Likewise for O=C(CN(Cc1ccccc1)S(=O)(=O)c1ccc(Br)cc1)NCC1CCCO1 (centres unmarked) ?
Result :: -77.2

Query :: Likewise for O=C(CN(Cc1ccccc1)S(=O)(=O)c1ccc(Cl)cc1)NCC1CCCO1 (centres unmarked) ?
Result :: -9.79

Query :: Likewise for Cc1ccccc1-c1cc(C(=O)NCc2ccc3c(c2)OCO3)n(CC2CC(c3cccnc3)=NO2)n1 (centres unmarked) ?
Result :: -20.8

Query :: Likewise for O=C(O)c1cc(-c2ccccc2)nn1CC1CC(c2cccnc2)=NO1 (centres unmarked) ?
Result :: 6.86

Query :: Likewise for Cc1cc(C)nc(N(C#N)CN2C(=O)c3ccccc3S2(=O)=O)n1 ?
Result :: 0.542

Query :: Likewise for Fc1ccc(Br)cc1C1C=C(c2ccc(Br)s2)Nc2ncnn21 (centres unmarked) ?
Result :: 9

Query :: Likewise for Nc1c(C(=O)CSc2nccn2-c2ccc(Cl)cc2)c(=O)[nH]c(=O)n1C1CC1 ?
Result :: 17.5

---

Measured hERG current change (%, negative = inhibition) at 10uM by item
- TARGET_OR_SYSTEM: human ether-à-go-go-related gene (hERG) potassium channel (human, UniProt Q12809);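 further: peak tail current of the secondary pulse compared with the same well before compound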
- PROTOCOL: primary screen, population patch clamp on CHO cells stably expressing hERG; higher = less effect of the substance
In all, about 310,000 compounds went through this assay and about 14,000 (4.5%) showed an effect of 50% or more. The effect is printed as a negative number. Only a selection was taken, and strong results are over-represented in it overall.
Enter your answer as a number in %; do not include the unit.

Cn1c(NCc2cccc(Br)c2)nc2ccccc21 = -22.2
CC1CN(S(=O)(=O)c2cccc(C(=O)Nc3ccc(S(=O)(=O)NC4=NCCCCC4)cc3)c2)CC(C)O1 (stereo not drawn) = -5.97
CCn1cc(CN2CCc3c([nH]c4ccccc34)C2c2cccc(O)c2)c(C)n1 (stereo not drawn) = -18.8

Query :: Quick one: hERG current change (%, negative = inhibition) at 10uM of Cc1ccccc1N(C)C(=O)C1CCCN(c2ncnc3c2nc2n3CCCCC2)C1 (stereo not drawn) ?
Result :: -7.96

Query :: Likewise for O=C(Nc1cc(S(=O)(=O)N2CCCCC2)ccc1Cl)c1ccc(F)cc1 ?
Result :: -8.99

Query :: Likewise for CCn1cc(CN2CCc3c([nH]c4ccccc34)C2c2ccc(F)c(OC)c2)c(C)n1 (stereo not drawn) ?
Result :: 6.94

Query :: Likewise for Brc1ccc(CNc2nc3ccccc3n2CCN2CCCCC2)cc1 ?
Result :: -62.7

Query :: Likewise for O=C(Nc1cc(S(=O)(=O)N2CCCCC2)ccc1Cl)c1ccncc1 ?
Result :: -50.2

Query :: Likewise for CN1CCN(S(=O)(=O)c2ccc(NC(=O)c3ccccc3Cl)cc2)CC1 ?
Result :: 8.9

Query :: Likewise for Brc1cccc(CNc2nc3ccccc3n2CCN2CCOCC2)c1 ?
Result :: -76.3
